B1: KCNK9 (parent)
chain: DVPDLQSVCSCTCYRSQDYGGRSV

variants of: B1; assay: protein stability index of a GFP-peptide fusion (GPS, HEK-293T) (PSI 1-6); higher = more stable; conditions: c terminus: a fixed tail appended;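 note: lentivirally expressed fusions sorted by FACS into six bins by GFP to DsRed ratio, PSI derived from sequencing read proportions per bin multiplied by bin number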
What protein stability index was measured for each of the following?
Give only the figure.

Enquiry: Quick one: protein stability index for V8H ?
Return: 1.57

Enquiry: Moving on to L5N
Return: 2.19

Enquiry: Moving on to Y19M
Return: 1.83

Enquiry: Moving on to G20Q
Return: 1.94

Enquiry: Moving on to V8Q
Return: 2.42

Enquiry: Moving on to D1R
Return: 1.62

Enquiry: Moving on to V24S
Return: 1.68

Enquiry: Moving on to C13W
Return: 1.75

Enquiry: Moving on to Y14I
Return: 1.83

Enquiry: Moving on to C9E
Return: 2.37

Enquiry: Moving on to T12V
Return: 2.47

Enquiry: Moving on to C13T
Return: 3

Enquiry: Moving on to D4C
Return: 1.64

Enquiry: Moving on to S10H
Return: 1.43

Enquiry: Moving on to C11P
Return: 3.8

Enquiry: Moving on to D18Q
Return: 1.51

Enquiry: Moving on to D4E
Return: 2.06

Enquiry: Moving on to Y19E
Return: 2.02

Enquiry: Moving on to V8N
Return: 2.5

Enquiry: Moving on to S23Q
Return: 2.12

Enquiry: Moving on to L5K
Return: 1.9

Enquiry: Moving on to S23R
Return: 1.48

Enquiry: Moving on to S7K
Return: 1.96

Enquiry: Moving on to Q6M
Return: 2.61

Enquiry: Moving on to S10F
Return: 1.26

Enquiry: Moving on to Q17F
Return: 1.95

Enquiry: Moving on to S16F
Return: 2.78

Enquiry: Moving on to R22N
Return: 2.6

Enquiry: Moving on to C9F
Return: 2.01

Enquiry: Moving on to S7G
Return: 1.81

Enquiry: Moving on to C9Y
Return: 1.82

Enquiry: Moving on to R22G
Return: 2.06

Enquiry: Moving on to S10E
Return: 2.16

Enquiry: Moving on to G21H
Return: 1.9

Enquiry: Moving on to D18N
Return: 2.08

Enquiry: Moving on to V2P
Return: 1.55

Enquiry: Moving on to Y19H
Return: 2.27

Enquiry: Moving on to C11S
Return: 3.3

Enquiry: Moving on to Q17A
Return: 1.56

Enquiry: Moving on to S23V
Return: 1.32

Enquiry: Moving on to T12W
Return: 2.72

Enquiry: Moving on to S10Y
Return: 1.92

Enquiry: Moving on to C9V
Return: 2.18

Enquiry: Moving on to V8M
Return: 1.06

Enquiry: Moving on to C11L
Return: 2.52

Enquiry: Moving on to V2R
Return: 2.2
